Test system: COR-L 105
Experiment: relative viability (nuclei count vs DMSO), 5 days (fraction); higher = more cells survive
Details: first compound 0.01 µM
RECORDED ENDPOINT: relative viability
Numbers only.

Answered cases to consult:
MOLECULE	RECORDED ENDPOINT	OBS VALUE
NC(=O)Nc1cc(-c2cccc(F)c2)sc1C(=O)N[C@H]1CCCNC1 [AZD7762] + C[C@]1(O)C[C@@H](c2nc(-c3ccc4ccc(-c5ccccc5)nc4c3)c3c(N)nccn32)C1 [Linsitinib] (partner 1 µM)	relative viability	0.855
NC(=O)Nc1cc(-c2cccc(F)c2)sc1C(=O)N[C@H]1CCCNC1 [AZD7762] + CC(C)C[C@H](NC(=O)[C@H](Cc1ccccc1)NC(=O)c1cnccn1)B(O)O [Bortezomib] (partner 0.002 µM)	relative viability	0.904
NC(=O)Nc1cc(-c2cccc(F)c2)sc1C(=O)N[C@H]1CCCNC1 [AZD7762] + N=C(N)NC(=N)NCCc1ccccc1 [Phenformin] (partner 250 µM)	relative viability	0.5

Let's switch to this molecule now.
Q: Which relative viability is listed for NC(=O)Nc1cc(-c2cccc(F)c2)sc1C(=O)N[C@H]1CCCNC1 [AZD7762] + COc1cc2c(Oc3ccc(NC(=O)C4(C(=O)Nc5ccc(F)cc5)CC4)cc3F)ccnc2cc1OCCCN1CCOCC1 [Foretinib] (partner 0.25 µM) ?
Result: 1.25

---

System: HCC-44
Assay: relative viability (nuclei count vs DMSO), 5 days (fraction); higher = more cells survive
Conditions: first compound 0.04 µM
RECORDED ENDPOINT: relative viability
Numbers only.

COMPOUND	relative viability
O=C(O)c1ccc(-c2c[nH]c3ncc(-c4ccccc4)cc23)cc1C1CCCC1 + N=C(N)NC(=N)NCCc1ccccc1 [Phenformin] (partner 250 µM)	0.198
O=C(O)c1ccc(-c2c[nH]c3ncc(-c4ccccc4)cc23)cc1C1CCCC1 + NC(=O)Nc1cc(-c2cccc(F)c2)sc1C(=O)N[C@H]1CCCNC1 [AZD7762] (partner 0.2 µM)	1.07

Provide the reported relative viability of each entry below, same order.
1. O=C(O)c1ccc(-c2c[nH]c3ncc(-c4ccccc4)cc23)cc1C1CCCC1 + CC(=O)Nc1cccc(-n2c(=O)n(C3CC3)c(=O)c3c(Nc4ccc(I)cc4F)n(C)c(=O)c(C)c32)c1 [Trametinib] (partner 0.02 µM)
2. O=C(O)c1ccc(-c2c[nH]c3ncc(-c4ccccc4)cc23)cc1C1CCCC1 + C[C@]1(O)C[C@@H](c2nc(-c3ccc4ccc(-c5ccccc5)nc4c3)c3c(N)nccn32)C1 [Linsitinib] (partner 1 µM)

Result:
1
0.664

---

Test system: LCLC-97TM1
Assay: relative viability (nuclei count vs DMSO), 5 days (fraction); higher = more cells survive
Details: first compound 0.5 µM
RECORDED ENDPOINT: relative viability
Answers are plain numbers.

Below, 6 molecules whose answers are already recorded.
MOLECULE	relative viability
CC1(C)CCC(c2ccc(Cl)cc2)=C(CN2CCN(c3ccc(C(=O)NS(=O)(=O)c4ccc(N[C@H](CCN5CCOCC5)CSc5ccccc5)c(S(=O)(=O)C(F)(F)F)c4)cc3)CC2)C1 [Navitoclax] + CC(=O)Nc1cccc(-n2c(=O)n(C3CC3)c(=O)c3c(Nc4ccc(I)cc4F)n(C)c(=O)c(C)c32)c1 [Trametinib] (partner 0.02 µM)	0.189
CC1(C)CCC(c2ccc(Cl)cc2)=C(CN2CCN(c3ccc(C(=O)NS(=O)(=O)c4ccc(N[C@H](CCN5CCOCC5)CSc5ccccc5)c(S(=O)(=O)C(F)(F)F)c4)cc3)CC2)C1 [Navitoclax] + C[C@]1(O)C[C@@H](c2nc(-c3ccc4ccc(-c5ccccc5)nc4c3)c3c(N)nccn32)C1 [Linsitinib] (partner 1 µM)	0.172
CC1(C)CCC(c2ccc(Cl)cc2)=C(CN2CCN(c3ccc(C(=O)NS(=O)(=O)c4ccc(N[C@H](CCN5CCOCC5)CSc5ccccc5)c(S(=O)(=O)C(F)(F)F)c4)cc3)CC2)C1 [Navitoclax] + Cc1cc(Nc2cc(N3CCN(C)CC3)nc(Sc3ccc(NC(=O)C4CC4)cc3)n2)n[nH]1 [Tozasertib] (partner 0.1 µM)	0.224
CC1(C)CCC(c2ccc(Cl)cc2)=C(CN2CCN(c3ccc(C(=O)NS(=O)(=O)c4ccc(N[C@H](CCN5CCOCC5)CSc5ccccc5)c(S(=O)(=O)C(F)(F)F)c4)cc3)CC2)C1 [Navitoclax] + O=C(c1cc(Cc2n[nH]c(=O)c3ccccc23)ccc1F)N1CCN(C(=O)C2CC2)CC1 [Olaparib] (partner 8 µM)	0.445
CC1(C)CCC(c2ccc(Cl)cc2)=C(CN2CCN(c3ccc(C(=O)NS(=O)(=O)c4ccc(N[C@H](CCN5CCOCC5)CSc5ccccc5)c(S(=O)(=O)C(F)(F)F)c4)cc3)CC2)C1 [Navitoclax] + Cc1nc(Nc2ncc(C(=O)Nc3c(C)cccc3Cl)s2)cc(N2CCN(CCO)CC2)n1 [Dasatinib] (partner 0.075 µM)	0.826
CC1(C)CCC(c2ccc(Cl)cc2)=C(CN2CCN(c3ccc(C(=O)NS(=O)(=O)c4ccc(N[C@H](CCN5CCOCC5)CSc5ccccc5)c(S(=O)(=O)C(F)(F)F)c4)cc3)CC2)C1 [Navitoclax] + C[C@@H](Oc1cc(-c2cnn(C3CCNCC3)c2)cnc1N)c1c(Cl)ccc(F)c1Cl [Crizotinib] (partner 1 µM)	0.381

Q: Reported relative viability for CC1(C)CCC(c2ccc(Cl)cc2)=C(CN2CCN(c3ccc(C(=O)NS(=O)(=O)c4ccc(N[C@H](CCN5CCOCC5)CSc5ccccc5)c(S(=O)(=O)C(F)(F)F)c4)cc3)CC2)C1 [Navitoclax] + Nc1ncn([C@H]2C[C@H](O)[C@@H](CO)O2)c(=O)n1 [Decitabine] (partner 2 µM) : what is it?
Result: 0.271

Where do these numbers come from? They come from the supplement of paper PMC10307832.
